# methodDescription: in vitro
# studyConditions: human, plasma
// reported half-life at 1 μM for each item listed
reportedMetric: half-life at 1 μM

>  <compound>
C[C@H](N[P@](=O)(OC[C@H]1O[C@@H](n2ccc(=O)[nH]c2=O)[C@](C)(F)[C@@H]1O)Oc1ccccc1)C(=O)OC1CCC1 [Prodrug 1.1]

>  <reportedMetric>
half-life at 1 μM

>  <testValue>
> 24 h

$$$$
>  <compound>
C[C@H](N[P@@](=O)(OC[C@H]1O[C@@H](n2ccc(=O)[nH]c2=O)[C@](C)(F)[C@@H]1O)Oc1ccccc1)C(=O)OC1CCC1 [Prodrug 1.2]

>  <reportedMetric>
half-life at 1 μM

>  <testValue>
> 24 h

$$$$

* * *

Consider the following compounds and their measured half-life at 1 μM readings.
# methodDescription: physchem
# studyConditions: simulated gi fluid, pH 6.75
reportedMetric: half-life at 1 μM

>  <compound>
C[C@H](N[P@@](=O)(OC[C@H]1O[C@@H](n2ccc(=O)[nH]c2=O)[C@](C)(F)[C@@H]1O)Oc1ccccc1)C(=O)OC1CCC1 [Prodrug 1.2]

>  <testValue>
> 1440 min

$$$$
>  <compound>
C[C@H](N[P@](=O)(OC[C@H]1O[C@@H](n2ccc(=O)[nH]c2=O)[C@](C)(F)[C@@H]1O)Oc1ccccc1)C(=O)OC1CCC1 [Prodrug 1.1]

>  <testValue>
> 1440 min

$$$$

* * *

# methodDescription: Cytotoxicity in Huh7 cells (ATPLite kit)
# Format: cell-based
# studyConditions: human, Huh7, ATPLite, 4 days
reportedMetric: CC50 at 4 days

>  <molecule>
C[C@H](N[P@](=O)(OC[C@H]1O[C@@H](n2ccc(=O)[nH]c2=O)[C@](C)(F)[C@@H]1O)Oc1ccccc1)C(=O)OC1CCC1 [Prodrug 1.1]

>  <testValue>
> 100 µM

$$$$
